TEST_NAME: CellTiter-Glo luminescent readout of SW480 viability loss, NPC library primary (AID 1117343)
TEST_CONTEXT: CellTiter-Glo luminescence; at 20 µM (top of the series)
Would you kindly list viability decrease (inhibition) for each of these compounds?
Response body: numeric value in %, unit text excluded.

Per the records, this compound ( CC(C)[N+](C)(C)CC(O)COc1cccc2ccccc12 (stereo not given) ) has viability decrease (inhibition) equal to -0.7

Per the records, this compound ( C[C@]12C=CC(=O)C=C1CC[C@@H]1[C@@H]2C(=O)C[C@@]2(C)[C@H]1CC[C@]2(O)C(=O)CO ) has viability decrease (inhibition) equal to -6.4

Form: compound = CCN(CC)CC(=O)OCC(=O)[C@@]1(O)CC[C@H]2[C@@H]3CCC4=CC(=O)CC[C@]4(C)[C@H]3[C@@H](O)C[C@@]21C ; viability decrease (inhibition) = 37.2

Summary for this compound, C/C=C(/C(=C/C)c1ccc(OC(C)=O)cc1)c1ccc(OC(C)=O)cc1 : viability decrease (inhibition) is 129

Notebook: CN1N=C(C(N)=O)CCC1=O , viability decrease (inhibition) read as -11.3

* * *

TEST_NAME: modulators of glucocorticoid suppression of NF-kB, cell-based, luciferase, IL-1B stimulus, dexamethasone (AID 624486)
TEST_CONTEXT: NF-kB luciferase reporter, IL-1B + dexamethasone, luminescence; measured here: IL-1B alone, no Dex
Exercise: state measured z-score for each of the compounds provided.
Lab note: record the figure alone, no unit after it.

Lookup result for Nc1[nH]nc2nc(-c3cccs3)cc(C(F)(F)F)c12 ; measured z-score: -2.23

Recorded result, O=C1NC(=NCc2ccccc2Br)SC1=Cc1ccc2ncccc2c1 , z-score: -0.56

The value of z-score measured for the compound Cn1c(=O)c(Oc2ccccc2F)cc2cnc(NC3CCOCC3)nc21 turned out to be 0.09

The compound listed as CCn1c(-c2nonc2N)nc2c(C#CC(C)(C)O)nc(OC[C@H](N)c3ccccc3)cc21 shows z-score equal to 1.86

For COc1cc[nH]c1C=C1C(=O)Nc2ccc([N+](=O)[O-])c(N3CCC(O)C3)c21 (stereo unspecified) the compound record lists z-score as -7.83

Value of z-score reported for the compound CCOc1ccccc1CCN=C1NC(=O)C(=Cc2ccc3ncccc3c2)S1 is -0.335

Lab note: CCn1c(-c2nonc2N)nc2c(C#CC(C)(C)O)nc(OCCNC)cc21 gave z-score of -0.295

// recorded z-score for COc1ccccc1CCN=C1NC(=O)C(=Cc2ccc3ncccc3c2)S1 : -0.58

Looking up CS(=O)(=O)CCCn1c(=O)c(Oc2ccc(F)cc2F)cc2cnc(NC3CCOCC3)nc21 , I see its z-score listed as 0.05

So, NS(=O)(=O)c1ccc(NC2CC(c3ccc(O)c(F)c3)NN2)cc1 (stereo unspecified) ? Its z-score was -0.075

For CN=C1NC(=O)C(=Cc2ccc3ncccc3c2)S1 the compound record lists z-score as -0.23

Value of measured z-score for the entry CC(=O)Nc1cccc(C#Cc2cncnc2Nc2ccc(OCc3cccc(F)c3)c(Cl)c2)c1 : -0.925

The compound listed as Nc1nccc(-c2c(-c3ccc(F)cc3)ncn2CCCN2CCOCC2)n1 has a reported z-score of 2.06

GET /value?item= COc1ccc(-c2ccc3c(NC(=O)C4CC4)n[nH]c3n2)cc1 &field=z-score returns 2.11

Memo: CS(=O)(=O)CCNCc1ccc(-c2ccc3ncnc(Nc4ccc(OCc5cccc(F)c5)c(C(F)(F)F)c4)c3c2)o1 , reported z-score: 1.84

// z-score value for CS(=O)(=O)CCNCc1nc(-c2ccc3ncnc(Nc4ccc(F)c(Cl)c4)c3c2)cs1 : -1.57

Field z-score (entry c1ccc(Cc2nc3ccc(Nc4ncnc5ccccc45)cc3[nH]2)cc1 ) reads -0.365

# compound Fc1ccc(-c2ncn(C3CCNCC3)c2-c2ccnc(Oc3cccc(C(F)(F)F)c3)n2)cc1 ; its z-score = 0.355

z-score reading for NS(=O)(=O)c1cccc(-c2cc3ccncc3cc2OCc2ccccc2)c1 : 0.36

For record Cn1cc(C2=C(c3c4n(c5ccccc35)CCN(C(N)=S)C4)C(=O)NC2=O)c2ccccc21 the listed z-score is -0.965

z-score measured on COC(=O)Nc1nc2ccc(Oc3ccc(NC(=O)Nc4ccccc4)cc3)cc2[nH]1 = 1.13
